# tgt: Kappa-type opioid receptor (Homo sapiens)
# Sequence (P41145 whole entry): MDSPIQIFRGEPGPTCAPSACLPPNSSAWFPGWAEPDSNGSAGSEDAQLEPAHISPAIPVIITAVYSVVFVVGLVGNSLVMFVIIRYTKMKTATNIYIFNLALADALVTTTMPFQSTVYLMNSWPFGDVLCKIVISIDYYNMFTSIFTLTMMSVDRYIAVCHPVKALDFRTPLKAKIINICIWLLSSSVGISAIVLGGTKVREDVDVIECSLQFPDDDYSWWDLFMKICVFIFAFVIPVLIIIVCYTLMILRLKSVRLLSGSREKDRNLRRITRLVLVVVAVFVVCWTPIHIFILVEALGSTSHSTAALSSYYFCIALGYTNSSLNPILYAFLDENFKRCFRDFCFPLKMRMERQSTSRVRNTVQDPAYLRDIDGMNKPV
# assay-protocol: Displacement of [3H]diprenorphine from human kappa opioid receptor expressed in CHO cell membranes measured after 1 hr by liquid scintillation counting method
# Ki per entry
The answer is to be given in nM; state only the numeric part.

# example entries with known answers
- compound-string: "Cc1cc(O)cc(C)c1C[C@H](N)C(=O)N[C@@H]1CCN(C(=O)C2CC2)c2ccc(Cc3cc4ccccc4o3)cc21.O=C(O)C(F)(F)F"
  tgt: "Kappa-type opioid receptor (Homo sapiens)"
  value-measured: 98
- compound-string: "Cc1cc(O)cc(C)c1C[C@H](N)C(=O)N[C@@H]1CCNc2ccc(Cc3cc4ccccc4o3)cc21.O=C(O)C(F)(F)F"
  tgt: "Kappa-type opioid receptor (Homo sapiens)"
  value-measured: 40
- compound-string: "Cc1cc(O)cc(C)c1C[C@H](N)C(=O)N[C@@H]1CCN(C(=O)C2CC2)c2ccc(Cc3cnc4ccccc4c3)cc21.O=C(O)C(F)(F)F"
  tgt: "Kappa-type opioid receptor (Homo sapiens)"
  value-measured: 84

Notebook entry, Kappa-type opioid receptor (Homo sapiens) assay: Ki of "Cc1cc(O)cc(C)c1C[C@H](N)C(=O)N[C@@H]1CCN(S(C)(=O)=O)c2ccc(Cc3cc4ccccc4o3)cc21.O=C(O)C(F)(F)F" = ?
8
